target: MidT-pY324; assay: fluorescence polarization
The reader will find reported Kd values listed item by item below.
Include the unit right after the number.

Guide cases for Kd, answers given:
[
  {
    "binder": "T8V K15L (designed binder) MKIEEHHHHHHSSGRENLYFQGGAAQPAAPVDSIQAEEWYFGKLGRKDAERQLLSFGNPRGTFLIRESETVKGAYSLSIRDWDDMKGDHVKHYLIRKLDNGGYYITTRAQFETLQQLVQHYSERAAGLSSRLVVPSHKGAAA",
    "Kd": "140 nM"
  },
  {
    "binder": "S10V K15L (designed binder) MKIEEHHHHHHSSGRENLYFQGGAAQPAAPVDSIQAEEWYFGKLGRKDAERQLLSFGNPRGTFLIRESETTKGAYVLSIRDWDDMKGDHVKHYLIRKLDNGGYYITTRAQFETLQQLVQHYSERAAGLSSRLVVPSHKGAAA",
    "Kd": "94 nM"
  },
  {
    "binder": "none (wild-type) (other) MKIEEHHHHHHSSGRENLYFQGGAAQPAAPVDSIQAEEWYFGKLGRKDAERQLLSFGNPRGTFLIRESETTKGAYSLSIRDWDDMKGDHVKHYKIRKLDNGGYYITTRAQFETLQQLVQHYSERAAGLSSRLVVPSHKGAAA",
    "Kd": "490 nM"
  }
]

Item: T8I S10A K15L (designed binder) MKIEEHHHHHHSSGRENLYFQGGAAQPAAPVDSIQAEEWYFGKLGRKDAERQLLSFGNPRGTFLIRESETIKGAYALSIRDWDDMKGDHVKHYLIRKLDNGGYYITTRAQFETLQQLVQHYSERAAGLSSRLVVPSHKGAAA | Kd: 43 nM

Item: T8V (designed binder) MKIEEHHHHHHSSGRENLYFQGGAAQPAAPVDSIQAEEWYFGKLGRKDAERQLLSFGNPRGTFLIRESETVKGAYSLSIRDWDDMKGDHVKHYKIRKLDNGGYYITTRAQFETLQQLVQHYSERAAGLSSRLVVPSHKGAAA | Kd: 370 nM

Item: ΔT8 S10A K15L (designed binder) MKIEEHHHHHHSSGRENLYFQGGAAQPAAPVDSIQAEEWYFGKLGRKDAERQLLSFGNPRGTFLIRESETTKGAYSLSIRDWDDMKGDHVKHYKIRKLDNGGYYITTRAQFETLQQLVQHYSERAAGLSSRLVVPSHKGAAA | Kd: 260 nM

Item: T8V S10A K15L (designed binder) MKIEEHHHHHHSSGRENLYFQGGAAQPAAPVDSIQAEEWYFGKLGRKDAERQLLSFGNPRGTFLIRESETVKGAYALSIRDWDDMKGDHVKHYLIRKLDNGGYYITTRAQFETLQQLVQHYSERAAGLSSRLVVPSHKGAAA | Kd: 11 nM

Recorded values, source patent US20190271705A1.
